# Lookup of reported recombinant UMI read abundance (log10) keyed by entry
Assay Info: recombinant UMI read abundance after kanamycin selection (control-corrected) (log10(CPM+1)); higher = more efficient recombination; extreme values may be limits of the assay; sequences stand for … in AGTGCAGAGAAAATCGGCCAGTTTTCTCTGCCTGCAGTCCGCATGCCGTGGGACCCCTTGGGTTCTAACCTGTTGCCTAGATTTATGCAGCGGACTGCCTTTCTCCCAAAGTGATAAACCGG…AGGTTGGTTTCACT; site = the 11-nt donor
Just the number.

Reference set, count: 5
>  <Chain Sequence>
GTCACCCCATGGACCGGTTTTCCCGGTAATCCGTATTTGGT (site GTCACCCCTAC)

>  <Value Type>
recombinant UMI read abundance (log10)

>  <Value Measured>
0.425

$$$$
>  <Chain Sequence>
TAGAATACATGGACCGGTTTTCCCGGTAATCCGTATTTGCA (site TCGAATACTTG)

>  <Value Type>
recombinant UMI read abundance (log10)

>  <Value Measured>
0.00888

$$$$
>  <Chain Sequence>
CGTTAGACATGGACCGGTTTTCCCGGTAATCCGTATTTGTG (site CGTTAGACTCT)

>  <Value Type>
recombinant UMI read abundance (log10)

>  <Value Measured>
0.0332

$$$$
>  <Chain Sequence>
TCCTCCCCATGGACCGGTTTTCCCGGTAATCCGTATTTGCG (site TCCTCCCCTCG)

>  <Value Type>
recombinant UMI read abundance (log10)

>  <Value Measured>
0.00424

$$$$
>  <Chain Sequence>
ACAAAATCATGGACCGGTTTTCCCGGTAATCCGTATTTGCA (site ACAAAATCTTG)

>  <Value Type>
recombinant UMI read abundance (log10)

>  <Value Measured>
1.3

$$$$

Could you share which recombinant UMI read abundance (log10) value was measured for TAAAGTCCATGGACCGGTTTTCCCGGTAATCCGTATTTGTA (site TAAAGTGCTTA) ? 0.00484

Data request, read-out recombinant UMI read abundance (log10), for ACAAGTGCATGGACCGGTTTTCCCGGTAATCCGTATTTGGT (site ACAAGTGCTAC) 2.04

Which value of recombinant UMI read abundance (log10) has been reported for GGTCCAACATGGACCGGTTTTCCCGGTAATCCGTATTTGTG (site GGTCCAACTGA) in the records? 0

----------
Assay Info: recombinant barcode read abundance after kanamycin selection (control-corrected) (log10(CPM+1)); higher = more efficient recombination; sequences stand for … in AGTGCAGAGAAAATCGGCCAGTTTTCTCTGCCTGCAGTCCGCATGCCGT…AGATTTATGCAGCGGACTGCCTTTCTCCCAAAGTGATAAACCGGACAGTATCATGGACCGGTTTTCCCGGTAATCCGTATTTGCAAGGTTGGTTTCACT; site = the 11-nt target
Value Type: recombinant barcode read abundance (log10)
Could you respond with only the numeric value?

Consider the following illustrative entries.
>  <Chain Sequence>
AGACTAACTTGGGTTCTAACCTGTTGCCT (site ACACTAACTAG)

>  <Value Measured>
0.0816

$$$$
>  <Chain Sequence>
TGTTCTTCTTGGGTTCTAACCTGTTGCCT (site TGTTCTTCTAG)

>  <Value Measured>
0.12

$$$$
>  <Chain Sequence>
TAGCCGACTTGGGTTCTAACCTGTTGCCT (site TAGCGGACTAG)

>  <Value Measured>
0.251

$$$$
>  <Chain Sequence>
GAAACGTCTTGGGTTCTAACCTGTTGCCT (site GACAAGTCTAG)

>  <Value Measured>
0.0765

$$$$
>  <Chain Sequence>
AGGCCGCCTTGGGTTCTAACCTGTTGCCG (site AGGCCGGCTCG)

>  <Value Measured>
0.178

$$$$

Suppose we examine the sequence CTACGGACTTGGGTTCTAACCTGTTGCTG (site CTACGGACTCA) ; what recombinant barcode read abundance (log10) value has been reported? 2.77

// recombinant barcode read abundance (log10) lookup, key: AATGCATCTTGGGTTCTAACCTGTTGCCT (site AATGGATCTAG) 0.054

Can you share its recombinant barcode read abundance (log10)? I mean this sequence: ACCTTGCCTTGGGTTCTAACCTGTTGCTA (site ACCTTGCCTTA) 0.478

Please give the measured recombinant barcode read abundance (log10) for this sequence: GATGTGACTTGGGTTCTAACCTGTTGCCT (site GATGTGACTAG) 2.3
